- Tested on: West Nile virus
- experiment.description: Inhibition of West Nile virus His-tagged NS2B-NS3 protease expressed in Escherichia coli BL21(DE3) at 50 uM using Abz-Gly-Leu-Lys-Arg-Gly-Gly-3-(NO2)Tyr as substrate preincubated for 15 mins followed by substrate addition measured for 15 mins by fluorescence assay relative to control
Where a SMILES comes first, the peptide text is derived from it. [ ]: non-standard residue; d: D form. The star is where a group is joined. Phe(4-guanidino) = N=C(N)Nc1ccc(C[C@H](N)C(=O)O)cc1; Phe(4-CH2NH2) = NCc1ccc(C[C@H](N)C(=O)O)cc1; Phe(4-NH2) = Nc1ccc(C[C@H](N)C(=O)O)cc1; Bz = O=C(c1ccccc1)*
measured.property: inhibition (%)
Give the quantity in %, number only.

[
  {
    "compound": "N=C(N)NCCC[C@H](NC(=O)[C@@H](NC(=O)c1ccccc1)c1cccc(NC(=N)N)c1)C(N)=O",
    "reading": 22
  }
]

## Input Would you mind telling me what inhibition value was observed for "N=C(N)NCCC[C@H](NC(=O)c1ccccc1)C(N)=O" ?
## Output 9.6

## Input One more compound: N=C(N)NCCC[C@H](NC(=O)[C@H](Cc1ccc(CN)cc1)NC(=O)c1ccccc1)C(N)=O (Bz-[Phe(4-CH2NH2)]-Arg-NH2)
## Output 20

## Input One more compound: "NCCC[C@H](NC(=O)c1ccccc1)B(O)O"
## Output 30

## Input One more compound: "N=C(N)NCCC[C@H](NC(=O)[C@H](Cc1cccc(NC(=N)N)c1)NC(=O)c1ccccc1)C(N)=O"
## Output 33

## Input One more compound: "NCCC[C@H](NC(=O)c1ccccc1)C(N)=O"
## Output 18

## Input One more compound: "CC(C)(C)c1ccc(C(=O)N[C@@H](Cc2ccc(NC(=N)N)cc2)C(=O)N[C@@H](CCCNC(=N)N)C(N)=O)cc1"
## Output 34

## Input One more compound: N=C(N)NCCC[C@H](NC(=O)[C@H](Cc1ccc(NC(=N)N)cc1)NC(=O)c1ccccc1)C(N)=O (Bz-[Phe(4-guanidino)]-Arg-NH2)
## Output 34

## Input One more compound: N=C(N)NCCC[C@H](NC(=O)[C@H](Cc1ccc(N)cc1)NC(=O)c1ccccc1)C(N)=O (Bz-[Phe(4-NH2)]-Arg-NH2)
## Output 13

## Input One more compound: "N=C(N)NCCC[C@H](NC(=O)c1ccccc1)B(O)O"
## Output 18
